All values here come from ChEMBL document CHEMBL1138505.

Test method notes: Toxicity in mouse liver mitochondria assessed as minimum drug level required for mitochondrial disruption
Applied conditions: in vitro
Recorded measurements of Activity, one per entry
Recorded endpoint: Activity (µM)

INSERT INTO results (structure_as_smiles, recorded_endpoint, meas_value) VALUES
  ('CC(C)C[C@@H](NC(=O)[C@H](N)CCCCN)C(=O)N[C@H](C)C(=O)N[C@H](CCCCN)C(=O)N[C@H](CC(C)C)C(=O)N[C@H](C)C(=O)N[C@H](CCCCN)C(=O)N[C@H](CCCCN)C(=O)N[C@H](CC(C)C)C(=O)N[C@H](C)C(=O)N[C@H](CCCCN)C(=O)N[C@H](CC(C)C)C(=O)N[C@H](C)C(=O)N[C@H](CCCCN)C(=O)O', 'Activity', 200),
  ('CCCCCC[C@@H](NC(=O)[C@H](N)CCCCN)C(=O)N[C@H](C)C(=O)N[C@H](CCCCN)C(=O)N[C@H](CCCCCC)C(=O)N[C@H](C)C(=O)N[C@H](CCCCN)C(=O)N[C@H](CCCCN)C(=O)N[C@H](CCCCCC)C(=O)N[C@H](C)C(=O)N[C@H](CCCCN)C(=O)N[C@H](CCCCCC)C(=O)N[C@H](C)C(=O)N[C@H](CCCCN)C(=O)O', 'Activity', 2.5);
